Recorded values, source ChEMBL document CHEMBL1127409.

target: Glutamate NMDA receptor; assay: Affinity for the glycine binding site of NMDA receptor by inhibition of [3H]5,7-dichlorokynurenic acid ([3H]DCKA) binding to rat brain synaptic membrane
pKi: −log10 of the molar value.
endpoint.label: pKi

compound=O=C(C[C@H]1CCc2cc(Br)cc3[nH]c(=O)c(=O)n1c23)Nc1ccccc1 study_target="Glutamate NMDA receptor" endpoint_label=pKi endpoint_result=7.09

1 = Oc1nc2cc(Cl)c(Cl)cc2nc1O [2,3-DIHYDROXY-6,7-DICHLOROQUINOXALINE]
2 = O=C(O)C1Cc2cc(Br)cc3[nH]c(=O)c(=O)n1c23 (stereo not drawn)
Which shows the larger pKi value: 1 or 2 ? Give the label of your selection.
2
(2: 7.08, 1: 6.80)
